Run Description: In vivo pharmacokinetics in white-finned broiler chickens
Run Conditions: Chinese white-finned broiler, po, i.g., 36 mg/kg, n = 6
Endpoint Label: CL/F

>  <Molecule Smiles>
O=c1c(O)c(-c2ccc(O)c(O)c2)oc2cc(O)cc(O)c12

>  <Endpoint Label>
CL/F

>  <Result>
219 mL/min/kg

$$$$

---

Run Description: Stability of QR in white broiler plasma
Type: in vitro ADME
Run Conditions: prepared plasma sample, 500 ng/mL, read-out: Remaining (%) in prepared plasma sample stored at 4°C for 24h
Endpoint Label: remaining at 24 h, 500 ng/mL (%)

>  <Molecule Smiles>
O=c1c(O)c(-c2ccc(O)c(O)c2)oc2cc(O)cc(O)c12

>  <Unit Name>
%

>  <Number>
100

$$$$

---

Run Description: In vivo pharmacokinetics in white-finned broiler chickens
Run Conditions: Chinese white-finned broiler, po, i.g., 36 mg/kg, n = 6

>  <Compound>
O=c1c(O)c(-c2ccc(O)c(O)c2)oc2cc(O)cc(O)c12 [QR, Quercetin]

>  <AUC(0-inf)>
2840 ng·h/mL

$$$$

---

Run Description: Stability of QR in white broiler plasma
Format: in vitro ADME
Run Conditions: spiked plasma, 100 ng/mL, read-out: Remaining (%) in plasma stored at −20°C for 7 days
Method: Precision and accuracy were assessed by running the standards (n = 6) for 1 day and three consecutive days for three levels of concentration (10.0, 100.0, and 500.0 ng/ml) at low, medium, and high. The stability of QR in the samples was also investigated by sampling and analyzing the three levels of spiked plasma at −20°C for 1 week and 4°C for 24 h.

>  <Molecule Smiles>
O=c1c(O)c(-c2ccc(O)c(O)c2)oc2cc(O)cc(O)c12

>  <remaining at 168 h, 100 ng/mL>
103%

$$$$

---

Run Description: In vivo pharmacokinetics in white-finned broiler chickens
Run Conditions: Chinese white-finned broiler, po, i.g., 36 mg/kg, n = 6
Endpoint Label: Tmax (h)

>  <Molecule Smiles>
O=c1c(O)c(-c2ccc(O)c(O)c2)oc2cc(O)cc(O)c12

>  <Endpoint Label>
Tmax

>  <Unit Name>
h

>  <Number>
2

$$$$

---

Run Description: Stability of QR in white broiler plasma
Assay type: in vitro ADME
Run Conditions: prepared plasma sample, 10 ng/mL, read-out: Remaining (%) in prepared plasma sample stored at 4°C for 24h

>  <Molecule Smiles>
O=c1c(O)c(-c2ccc(O)c(O)c2)oc2cc(O)cc(O)c12

>  <remaining at 24 h, 10 ng/mL / %>
92.8

$$$$

---

Run Description: In vivo pharmacokinetics in white-finned broiler chickens
Run Conditions: Chinese white-finned broiler, po, i.g., 36 mg/kg, n = 6

>  <Molecule Smiles>
O=c1c(O)c(-c2ccc(O)c(O)c2)oc2cc(O)cc(O)c12

>  <Unit Name>
ng/mL

>  <Cmax>
278

$$$$

---

Run Description: Stability of QR in white broiler plasma
Assay type: in vitro ADME
Run Conditions: prepared plasma sample, 100 ng/mL, read-out: Remaining (%) in prepared plasma sample stored at 4°C for 24h

>  <Compound>
O=c1c(O)c(-c2ccc(O)c(O)c2)oc2cc(O)cc(O)c12 [QR, Quercetin]

>  <remaining at 24 h, 100 ng/mL>
97.2%

$$$$

---

Run Description: In vivo pharmacokinetics in white-finned broiler chickens
Run Conditions: Chinese white-finned broiler, po, i.g., 36 mg/kg, n = 6, read-out: Vd, λz/F
Endpoint Label: Vd/F (L/kg)

>  <Molecule Smiles>
O=c1c(O)c(-c2ccc(O)c(O)c2)oc2cc(O)cc(O)c12

>  <Endpoint Label>
Vd/F

>  <Number>
132

$$$$
